# Tested on: human maximum recommended daily dose, FDA database
# TEST: DSSTox (FDAMDD) FDA Maximum (Recommended) Daily Dose Database
# ASSAY_SETUP: TherapeuticCategory: choleretic; active compounds read low
Items are presented alongside their recorded maximum recommended daily dose (mmol/kg-bw/day).
Response field accepts a number only; no unit should be typed.

Solved entries:
C[C@H](CCC(=O)O)[C@H]1CC[C@H]2[C@@H]3C(=O)C[C@@H]4CC(=O)CC[C@]4(C)[C@H]3CC(=O)[C@]12C; 0.0932
O=C(O)CCC(=O)c1ccc2c(c1)-c1cccc3cccc-2c13; 0.0552

Read the next record carefully.
Challenge: Return reported maximum recommended daily dose (mmol/kg-bw/day); argument: O=C(O)C1CSCN1 (stereo not drawn)
Response given: 0.0751
